- TARGET_SYSTEM: T1, cyno IL-12RB1 overexpressed on 293T cells (Example 2) (cyno, UniProt A0A2K5VWV1 24-662)
- T1 construct: whole, on cells
- EXPERIMENT_DESCRIPTION: FACS, hybridoma supernatant, 293T
OBSERVED_PROPERTY: Fold over parental 293T (fold)

85801_04G19 (antibody, V domains shown, also called 85801_04G19A) VH: QVQLQESGPGLVKPSETLSLTCTVSGGSISSYYWSWIRQSAGKELEWIGRIYTSGSTIYNPSLKSRVTMSVDPSKNQFSLKLSSVTAADTAVYYCANSRSYPHDAFDIWGQGTMVTVSS VL: DIQLTQSPSFLSASVGYRVTITCRASQGISSYLAWYQQKPGKAPQLLIYAASTLQSGVPSRFSGRGSGTEFTLTISSLQPEDFATYYCQQLNGYPFTFGPGTKVNIK ... 116
85801_05G01 (antibody, V domains shown, also called 85801_05G01A) VH: QVQLVQSGAEVKKPGASAKVSCKASGYTFTDYYLHWVRQAPGQGLEWMGWINPNNGGTHYAQKFQGRVTMTRDTSISTAYMELSRLRSDDTAVYYCAREMGGTTAFDYWGQGTLVTVSS VL: DIQMTQSPSSLSASVGDRVTITCRASQGIGNYLAWFQQRPGKAPKSLIYAASSLQSGVPSKFSGSGSGTDFTLTISSLQPADFAIYYCQQYNIYPYTFGPGTRLEIK ... 73
85801_10F19 (antibody, V domains shown, also called 85801_10F19A) VH: QVQLVQSGAEVRKPGASVKVSCKASGYTFTDYYMHWVRQAPGQGREWMGWINPNSGGTHYAQKFQGRVTMTWDTSISTAYMELSRLRSDDTAVYYCAREGATTVYFDYWGQGTLVTVSS VL: DIQLTQSPSFLSASVGDRVTLTCRASQGINNYLAWYQEKPGKAPNPLIYDASTLQSGVPSRFSGSGSGTEFTLTISSLQPEDFATYYCQQLNMYPYTFGQGTKLEIK ... 16
85801_02K24 (antibody, V domains shown, also called 85801_02K24A) VH: QVQLQESGPGLVKPSETLSLTCTVSGGSISSYDWSWIRQSAGKGLEWIGRIYTSGSTIYNPSLKSRVTMSVDTSKNEISLKLSSVTAADTAFYYCAKDRGNYPHDAFDIWGQGTMITVSS VL: DIQLTQSPSFLSASVGDRVTITCRASQGISSFLAWYQQKPGKAPKLLIYAASTLQSGVPSRFSGSGSGTEFTLTISSLQPEDFATYYCQQLNGYPFTFGPGTKVDIK ... 53
85801_10M19 (antibody, V domains shown, also called 85801_10M19A) VH: EVQLVESGGGLVQPGGSLRLSCAASGFTFSSYDMHWVRQATGKGLEWVSVIGTAGDTYYPGSVKGRFTISRENAKNSLYLQMNSLRAGDTAVYYCARSRGETDWYFDLWGRGTLVTVSS VL: EIVLTQSPATLSLSPGERATLSCRASQSVSRLLAWYQQKPGQAPRLLIYDASNRATGIPARFSGSGSGTDFTLTISSLEPEDFAVYYCQQRRNWLTFGGGTKVEIK ... 21
85801_04M12 (antibody, V domains shown, also called 85801_04M12A) VH: QVQLVESGGGVVQPGRSLRLSCAASGFTFSSHGMHWVRQAPGKGLEWVAIIWYAGNKKYYADSVKGRFTISRDNSKNTLYLQMNSLRAEDTAVYYCARESLLNSASDIWGQGTMVTVSS VL: QSVLTQPPSVSAAPGQTVTISCSGSSSNIGNNYVSWYQQLPGTAPKLLIYDNNKRPSGIPDRFSGSKSGTSATLGITGLQTGDEADYYCGTWDSSLSAVVFGGGTKLTVL ... 71
85801_01D14 (antibody, V domains shown, also called 85801_01D14A) VH: EVQLVESGGGLVKPGGSLRLSCAASGFTFSNAWMNWVRQAPGKGLEWVGRIKSKTDGGTTDYAAPVKGRFTVSRDDPKNTLYLQMNSLKTEDTAVYYCTTDPGWEFDYWGQGILVTVSS VL: DIQMTQSPSSLSASVGDRVTITCQASQDISNFLNWYQQKPGKAPNLLIYDASDLETGVPSRFSGSGSGTDFTFTISSLQPEDIATYYCQQYDNLPLTFGGGTKVEIK ... 52
85801_04M10 (antibody, V domains shown, also called 85801_04M10A) VH: QVQLQESGPGLVKPSETLSLTCTVSGGSISSYYWSWIRQPAGTGLEWIGRFYTSGSTIYNPSLESRVTMSVDTSKNQFSLKLSSVTAADTAVYYCATERDYPHDAFDIWGQGTMVTVSS VL: DIQLTQSPSFLSASVGDRVTIPCRASQDISSFLAWYQQKPGKAPNLLIYAASTLQSGVPSRFSGSGSGTEFTLTISSLQPEDFATYYCQQLNGYPLTFGGGTKVEIK ... 122
85801_02011 (antibody, V domains shown, also called 85801_02O11A) VH: EVQLVESGGGLVQPGGSLRLSCAASGFTFSSYDMNWVRQAPGKGLEWISYINSRSSTIYYADSVKGRFTISRDNAKNSLYLQMNSLRDEDTALYYCAREIEDSMDVWGQGTTVTVSS VL: QSVLTQPPSVSAAPGQKVTISCSGSSSNIGNNYVSWYQQLPGTAPKLLIYDNNERPSGIPDRFSGSKSGTSATLGITGLQPGDEADYYCGTWDSSLSAGVFGGGTKLTVL ... 56
85801_04M04 (antibody, V domains shown, also called 85801_04M04A) VH: QVQLVQSGAEVKKPGASVRVSCKASGYTFTSYYIHWVRQAPGQGLEWMGIINPSGGSTSYAQKFQGRVTMTRDTSTTTVYMELSSLRSEDTAVYYCAKSNWAYAFDIWGQGTMVTVSS VL: SSELTQDPAVSVALGQTVRITCQGDSLSSYYAGWYQQKPGQAPVLVIYGKNNRPSGIPDRFSGSSSEDTASLTITGAQAEDEADYYCNSRDSSDNHLVFGGGTKLTVL ... 195
85801_01L02 (antibody, V domains shown, also called 85801_01L02A) VH: QVQLVHSGPEVKKPGASVKVSCKASGYTFTDYYMHWVRQAPGQGLEWMGWINPDSGGTNYAQKFQGRVTMTRDTSISTAYMELSRLRSDDTAVYHCAREGATSNFDYWGQGTLVTVSS VL: DIQMTQSPSSLSASVGDRVTITCRASQGISNYLAWFQQKPGKAPTSLIYAASNLQGGVPSKFSGSGSGTDFTLTISSLQPEDFATYYCQQYRYYPFTFGPGTKVDIK ... 32
